Where do the numbers come from? From patent US11690854B2.

assay: Pharmacokinetic properties of ELAGOLIX in healthy subjects; type: in vivo, human; settings: human, blood and plasma
parameter.measured: blood plasma ratio
Simply state the number, no unit and no words.

IN: Fill in blood plasma ratio for record COc1cccc(-c2c(C)n(Cc3c(F)cccc3C(F)(F)F)c(=O)n(C[C@H](NCCCC(=O)O)c3ccccc3)c2=O)c1F
OUT: 0.6
